Some molecules, each annotated with its measured Pct membrane.
conditions: PAMPA, compound found in membranes
Numeric only. Scale: %

molecule="Cc1c(C(=O)NN2CCCCC2)nn(-c2ccc(Cl)cc2Cl)c1-c1ccc(Cl)cc1 [SR141716A]" value_measured=74.3
molecule="Cc1c(C(=O)c2cccc3ccccc23)c2cccc3c2n1[C@H](CN1CCOCC1)CO3 [WIN55212-2]" value_measured=49
molecule="COc1ccc(C(=O)c2c(C)n(CCN3CCOCC3)c3cc(I)ccc23)cc1 [AM630]" value_measured=64.3
molecule="CN1CCCC[C@@H]1Cn1cc(C(=O)c2cc([N+](=O)[O-])ccc2I)c2ccccc21 [(R)-AM1241]" value_measured=59.7
molecule="CCCCCCC(C)(C)c1cc(OC)c([C@@H]2C=C(CO)[C@@H]3C[C@H]2C3(C)C)c(OC)c1 [HU308]" value_measured=74.3
molecule="Cc1ccc2c(c1)Cc1c(C(=O)NN3CCCCC3)nn(-c3ccc(Cl)cc3Cl)c1-2 [Gp-1a]" value_measured=70.3
molecule="CCCC(C)(C)c1ccc2c(c1)OC(C)(C)[C@@H]1CC=C(C)C[C@@H]21 [JWH133]" value_measured=61.7
molecule="CCCCC/C=C\\C/C=C\\C/C=C\\C/C=C\\CCCC(=O)NCCO [Anandamide, N-arachidonoylethanolamine]" value_measured=2.7
molecule="CN1CCCC[C@H]1Cn1cc(C(=O)c2cc([N+](=O)[O-])ccc2I)c2ccccc21 [(S)-AM1241]" value_measured=64
molecule="CCCCCCC(C)(C)c1cc(O)c2c(c1)OC(C)(C)[C@@H]1CC=C(CO)C[C@@H]21 [HU210]" value_measured=76

Q) Recorded Pct membrane of CN1CCCCC1Cn1cc(C(=O)c2cc([N+](=O)[O-])ccc2I)c2ccccc21 (racemic) [(rac)-AM1241] , please.
A) 55.7

Q) Recorded Pct membrane for CCCCCCC(C)(C)c1cc(OC)c(C2=C[C@H]3CC[C@]2(CO)C3(C)C)c(OC)c1 [HU910] , please?
A) 57

###

Biological target: A3 (h) (Homo sapiens, UniProt P0DMS8)
Construct: CEREP
Sequence (P0DMS8 1-318): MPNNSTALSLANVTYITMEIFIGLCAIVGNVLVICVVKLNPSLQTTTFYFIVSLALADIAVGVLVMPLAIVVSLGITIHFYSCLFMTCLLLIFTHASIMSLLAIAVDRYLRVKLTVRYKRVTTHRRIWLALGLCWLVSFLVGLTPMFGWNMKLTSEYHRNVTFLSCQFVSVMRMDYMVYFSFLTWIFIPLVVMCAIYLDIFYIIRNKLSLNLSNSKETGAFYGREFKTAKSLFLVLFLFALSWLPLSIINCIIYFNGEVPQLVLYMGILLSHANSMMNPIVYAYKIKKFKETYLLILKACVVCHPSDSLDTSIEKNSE
Assay: CEREP panel
Format: binding
Conditions: 10 µM
MEASURED_PARAMETER: % inhibition A3 (h) (%)
Number in %, nothing else.

molecule="Cc1ccc2c(c1)Cc1c(C(=O)NN3CCCCC3)nn(-c3ccc(Cl)cc3Cl)c1-2 [Gp-1a]" unit_tag=% value_measured=95
molecule="CCCC(C)(C)c1ccc2c(c1)OC(C)(C)[C@@H]1CC=C(C)C[C@@H]21 [JWH133]" unit_tag=% value_measured=-26
molecule="Cc1c(C(=O)c2cccc3ccccc23)c2cccc3c2n1[C@H](CN1CCOCC1)CO3 [WIN55212-2]" unit_tag=% value_measured=84
molecule="CCCCCCC(C)(C)c1cc(OC)c(C2=C[C@H]3CC[C@]2(CO)C3(C)C)c(OC)c1 [HU910]" unit_tag=% value_measured=62
molecule="Cc1c(C(=O)NN2CCCCC2)nn(-c2ccc(Cl)cc2Cl)c1-c1ccc(I)cc1 [AM251]" unit_tag=% value_measured=93
molecule="CN1CCCC[C@H]1Cn1cc(C(=O)c2cc([N+](=O)[O-])ccc2I)c2ccccc21 [(S)-AM1241]" unit_tag=% value_measured=42

Q) Which % inhibition A3 (h) reading was recorded for the molecule CCCn1c(C)c(C(=O)c2cccc3ccccc23)c2ccccc21 [JWH015] ?
A) 93

Q) So what's the measured % inhibition A3 (h) for this one? COc1ccc(C(=O)c2c(C)n(CCN3CCOCC3)c3cc(I)ccc23)cc1 [AM630]
A) 76

Data origin, for the record: paper PMC5216056
